Quick note: these are pKd numbers for system: galectin-9N (Homo sapiens)
Sequence (O00182 17-148 limits assumed): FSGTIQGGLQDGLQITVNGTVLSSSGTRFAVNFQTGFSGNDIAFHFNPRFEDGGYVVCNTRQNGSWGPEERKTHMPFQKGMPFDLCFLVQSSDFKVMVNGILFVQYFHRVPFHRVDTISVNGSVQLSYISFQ
Scale: pKd equals -log10([C]), with [C] in mol/L.

INSERT INTO results (compound, propertymeasured, reportedresult) VALUES
  ('COC1OC(CO)C(O)C(O)C1O (stereo not drawn) [Methyl β-Gal, reference compound]', 'pKd', 2.40),
  ('OC[C@H]1O[C@@H](O[C@H]2[C@@H](O)[C@@H](CO)O[C@@H](OC[C@H]3OC(O)[C@H](O)[C@@H](O)[C@H]3O)[C@@H]2O)[C@H](O)[C@@H](O)[C@H]1O (some centres unmarked)', 'pKd', 4.17);

INPUT: Missing value: pKd, galectin-9N (Homo sapiens), entry OC[C@H]1O[C@@H](OC[C@H]2O[C@@H](OC[C@H]3OC(O)[C@H](O)[C@@H](O)[C@H]3O)[C@H](O)[C@@H](O[C@@H]3O[C@H](CO)[C@H](O)[C@H](O)[C@H]3O)[C@H]2O)[C@H](O)[C@@H](O)[C@H]1O (some centres unmarked) . Fill in?
OUTPUT: 4.29
